- measurement_target: Factor X (FX), P00742
- Sequence (P00742 whole entry, looked up): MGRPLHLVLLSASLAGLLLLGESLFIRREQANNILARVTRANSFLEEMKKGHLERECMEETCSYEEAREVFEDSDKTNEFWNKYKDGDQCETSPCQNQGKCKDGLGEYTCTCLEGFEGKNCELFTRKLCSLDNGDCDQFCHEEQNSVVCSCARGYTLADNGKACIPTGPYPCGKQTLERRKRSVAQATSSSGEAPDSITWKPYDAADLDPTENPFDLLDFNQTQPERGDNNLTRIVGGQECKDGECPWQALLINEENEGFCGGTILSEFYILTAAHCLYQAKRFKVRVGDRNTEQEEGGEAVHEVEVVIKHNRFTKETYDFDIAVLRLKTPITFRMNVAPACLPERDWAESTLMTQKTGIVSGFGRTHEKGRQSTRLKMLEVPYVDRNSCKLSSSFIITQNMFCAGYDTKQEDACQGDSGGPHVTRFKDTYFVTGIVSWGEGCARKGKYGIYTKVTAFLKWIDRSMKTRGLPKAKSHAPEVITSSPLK
reported_endpoint: kcat of FX activation by FIXa in the Xase complex (FVIIIa, PC/PS vesicles, Ca2+)
Quick note: number first, unit second.

Prompt line: Sample FIXa-Y155F/K247N/N249S/R338E/R403E/E410N (protein) chain 1: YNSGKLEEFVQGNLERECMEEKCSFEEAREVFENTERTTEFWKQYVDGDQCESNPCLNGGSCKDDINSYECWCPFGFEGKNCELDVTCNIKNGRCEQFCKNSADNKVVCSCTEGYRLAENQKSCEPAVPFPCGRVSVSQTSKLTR chain 2: VVGGEDAKPGQFPWQVVLNGKVDAFCGGSIVNEKWIVTAAHCVETGVKITVVAGEHNIEETEHTEQNRSVIRIIPHHNYNAAINKYNHDIALLELDEPLVLNSYVTPICIADKEYTNIFLKFGSGYVSGWGRVFHKGRSALVLQYLRVPLVDRATCLESTKFTIYNNMFCAGFHEGGRDSCQGDSGGPHVTEVEGTSFLTGIISWGEECAMKGKYGIYTKVSEYVNWIKNKTKLT — what was its kcat of FX activation by FIXa in the Xase complex (FVIIIa, PC/PS vesicles, Ca2+)?
Response line: 5 s⁻¹

Numbers sourced from patent US20210230570.
